- measurementNotes: Inhibition of Mycobacterium abscessus ATCC 19977 salicylate synthase expressed in Escherichia coli BL21 (DE3) cells using chorismic acid as substrate in presence of BSA by fluorimetric assay
- Design: species or system Mycobacteroides abscessus
measureName: IC50 (nM)
The answer is to be given in nM; state only the numeric part.

Q: Value lookup for IC50; key = "NS(=O)(=O)c1cccc(-c2ccc(C(=O)O)o2)c1"
Result: 2800

----------
- measurementNotes: Inhibition of Mycobacterium abscessus ATCC 19977 salicylate synthase expressed in Escherichia coli BL21 (DE3) cells by fluorimetric assay
- Parameters: species or system Mycobacteroides abscessus
measureName: IC50

Q: Value lookup for IC50; key = "O=C(O)c1ccc(-c2ccc(C(F)(F)F)cc2C(F)(F)F)o1"
Result: ~5 µM
